Catalogue of molecules with associated melting point

# annotated cases, reported melting point shown
Cc1c(C(=O)C(=O)NC2=CC(=O)OC2)c2ccccc2n1Cc1ccc(Cl)cc1 : 254 to 256 °C
CSC(=C[N+](=O)[O-])S(C)=O (stereo unspecified) : 137 to 143 °C
Ic1cnc(-c2cccs2)s1 : 117 to 119 °C
COC(=O)CCC(=O)CCl : 8 to 13 °C
CN1CCC(OC2c3ccccc3CCn3c2nc(-c2ccccc2)c3I)CC1 (stereo unspecified) : 153 °C

Next molecule, melting point to be filled in.
Note down melting point recorded for `CCOC(=O)C1=C(C)NC(C)=C(C(=O)OCC)C1c1ccccc1Cl`
120 to 121 °C

====

Catalogue of compounds with associated melting point

# annotated cases, reported melting point shown
O=C(NC(=O)c1c(F)cccc1F)Nc1cncc(C(F)(F)F)c1 : 233 to 235 °C
OC(CNc1cc(Cl)c(Cl)cc1Cl)Cn1ccnc1 (stereo not given) : 156 to 158 °C
CN(N(S(C)(=O)=O)S(C)(=O)=O)S(C)(=O)=O : 123 to 124 °C
O=C(CC1(c2ccccc2)CCCC1)C(=O)Nc1ccc2c(c1)COC2=O : 140 to 144 °C
O=C(O)/C=C/c1c[nH]c2ccccc2c1=O : 242 to 244 °C

Note down melting point recorded for `Cc1c(C(=O)O)cnn1-c1nc(-c2cc(C(F)(F)F)cc(C(F)(F)F)c2)cs1`
261 °C

Note down melting point recorded for `COC(=O)CCCc1cc2nc(Cl)ccc2n1S(=O)(=O)c1ccc2snnc2c1`
219 °C

Note down melting point recorded for CCOC(=O)c1[nH]cc2c1NC1=C(C(=O)CCC1)C2c1cnc(Sc2nc3ccccc3[nH]2)s1 (stereo not given)
194 °C

Note down melting point recorded for `N#Cc1ncc(-c2ccccc2)nc1Cl`
143 to 145 °C

Note down melting point recorded for `NC(=O)Cc1csc(-c2cccc(Br)c2)n1`
150 to 152 °C

====

Catalogue of compounds with associated melting point

COc1ccc(C(=O)C=Cc2ccc(C#N)cc2)c(OC)c1OC : 132 to 133 °C
Cc1cc(C(=O)N2Cc3cccn3Cc3ccccc32)ccc1I : 152 to 153 °C
COc1ccc(C(F)(F)F)cc1Nc1cccn2nc(Cl)nc12 : 144 to 146 °C
CCc1ccc2[nH]c(=O)[nH]c(=O)c2c1 : 271 to 274 °C
COc1ccc([N+](=O)[O-])c2c1CC(NC(C)=O)CC2 (stereo not given) : 205 to 206 °C
CCCc1cc([N+](=O)[O-])cc2cc(C(=O)OCC)oc12 : 111 °C

Note down melting point recorded for `Cc1cc(C)cc(-c2nc(N)sc2-c2ccnc(OCc3ccccc3)c2)c1`
141 to 143 °C

Note down melting point recorded for `CC(C)(C)OC(=O)NC(=NS(=O)(=O)C(F)(F)F)NC(=O)OCc1ccccc1`
95 to 97 °C

Note down melting point recorded for `O=C1CCCN1C(=O)c1ccc(O)cc1`
179 to 182 °C

Note down melting point recorded for `CC(C)[C@@H](C(=O)N1C(=O)O[C@@H](c2ccccc2)[C@H]1C)[C@@H](O)[C@@H]1OC(C)(C)N(C(=O)OC(C)(C)C)[C@H]1CC1CCCCC1`
97 °C

====

Catalogue of molecules with associated melting point

# annotated cases, reported melting point shown
CN=C(N)Nc1nc(CCCCNC(=NC#N)NC)cs1 : 119 to 122 °C
CCOC(=O)C1=Cc2cc(I)ccc2NC1C(F)(F)F (stereo unspecified) : 137 to 138 °C
COc1cc(C(C)C)ccc1C1(Br)C(=O)c2cccc(NC(C)=O)c2C1=O (stereo unspecified) : 143 to 145 °C
O=C1CCC(N2C(=O)c3cccc(OCc4ccc(CN5CCN(CC(F)(F)F)CC5)cc4)c3C2=O)C(=O)N1 (stereo unspecified) : 163 to 165 °C

Note down melting point recorded for Cc1nccn1CC1CC2CCCn3c2c(c2ccccc23)C1=O (stereo unspecified)
169 to 171 °C

Note down melting point recorded for `Cn1cc(-c2ccccc2)c(=O)c(-c2cccc(O)c2)c1`
223 to 225 °C

Note down melting point recorded for Cc1cc2c(cc1[N+](=O)[O-])C(=O)CC(C)O2 (stereo unspecified)
110 to 113 °C

Note down melting point recorded for `S=C1Nc2ccccc2N2CCN(Cc3ccccc3)CCN12`
125 to 127 °C

Note down melting point recorded for COc1ccc(-c2cnc3nccn3c2)cc1OC1CC2CCC1C2 (stereo unspecified)
130 °C

Note down melting point recorded for `CC(C)(C)OC(=O)N1CC(NC(=O)CNC(=NC(=O)OCc2ccc([N+](=O)[O-])cc2)NC(=O)OCc2ccc([N+](=O)[O-])cc2)C1`
99 to 101 °C

Note down melting point recorded for `O=C(O)c1ccccc1OCCN1CCC(c2cn(CCOc3ccc4c(c3)OCO4)c3ccccc23)CC1`
123 to 125 °C

Note down melting point recorded for `O=C(O)c1cccc2c(-c3ccccc3)c([N+](=O)[O-])oc12`
271 to 272 °C

Note down melting point recorded for `COC(=O)c1c([N+](=O)[O-])cccc1[N+](=O)[O-]`
150 to 152 °C

====

Catalogue of compounds with associated melting point

# annotated cases, reported melting point shown
COc1cccc(Oc2nc(N)n3nc(-c4ccco4)nc3n2)c1 : 226 to 227 °C
CCOC(=O)c1ccc(COc2cccc3occc23)cc1 : 70 to 72 °C
CC(C)(C)OC(=O)NCc1ccc(N2CC(C(=O)N3CCN(CCC(=O)OCc4ccccc4)CC3)OC2=O)cc1 (centres undefined) : 128 to 130 °C
NC(=O)c1nnn(Cc2ccc(C(=O)c3c(Cl)cccc3Cl)cc2)c1N : 165 to 167 °C
S=P12SP3(=S)SP(=S)(S1)SP(=S)(S2)S3 : 165 to 166 °C

Note down melting point recorded for `Cn1nc(-c2ccncc2)nc1-c1ccncc1`
168 to 170 °C

====

Catalogue of compounds with associated melting point

# annotated cases, reported melting point shown
CCC1(CC)OC(c2ccc(S(C)(=O)=O)cc2)=C(c2ccc(OC)c(F)c2)C1=O : 183 to 184 °C
CCCCCc1cnc(-c2ccc(-c3ccc(C#N)cc3)cc2)nc1 : 124 °C
CC(C)c1cc(C(C)C)c(CC(=O)NS(=O)(=O)Oc2c(C(C)C)cc(S(N)(=O)=O)cc2C(C)C)c(C(C)C)c1 : 164 to 166 °C

Note down melting point recorded for `CCOP(=O)(Cc1ccc(NC(=O)CCc2cnoc2-c2ccccc2)cc1)OCC`
139 to 140 °C

====

Catalogue of compounds with associated melting point

# annotated cases, reported melting point shown
C[C@@H]1CN(Cc2ccccc2)C[C@H]1C(=O)NC1CC1 (relative stereo) : 81 to 83 °C
COc1c(C)c(NC(=O)NCCO)c(C)c2c1OCC2c1ccc(C(C)C)cc1 (centres undefined) : 127 to 129 °C
COc1cccc2c1-c1c(OC(C)C)cccc1C2=O : 118 to 120 °C
CCOC(=O)NC(=S)CNc1ccc(C(=O)OC)c(S(=O)(=O)NC(=O)Nc2nc(OC)cc(OC)n2)c1 : 144 to 145 °C
CC(C)(CNC=O)c1ccc(N)c([N+](=O)[O-])c1 : 113 to 115 °C
CCOC(=O)c1nn(-c2ccccc2)c2c1CCCc1ccccc1-2 : 110 to 111 °C
CC(C)CCN1C(=O)C(NC(=O)Oc2cccc(N(C)C)c2)C(=O)N(c2ccccc2F)c2ccccc21 (centres undefined) : 193 to 194 °C
FC(F)(F)c1ccc(-c2ccc3ccn(Cc4ccccc4)c3c2)cc1 : 83 to 85 °C

Next compound, melting point to be filled in.
Note down melting point recorded for `COc1cc(C#CC(=O)c2ccccc2)cc(OC)c1OC`
158 to 160 °C

====

Catalogue of compounds with associated melting point

Note down melting point recorded for `Oc1ccc2c(ccn2-c2ccnc(N[C@H]3CC[C@H](O)CC3)n2)c1`
246 to 248 °C

====

Catalogue of compounds with associated melting point

# annotated cases, reported melting point shown
CCCCCCCCCCCCCCCCCCNC(=O)Nc1cccc([N+](=O)[O-])c1 : 102 to 104 °C
Fc1ccc(-c2nc(CCCSc3ccccc3)[nH]c2-c2ccncc2)cc1 : 98 to 99 °C
Cc1cn(C2CC(ON)C(CO[Si](C)(C)C(C)(C)C)O2)c(=O)[nH]c1=O (stereo unspecified) : 171 °C
O=C(NC(=NCCCc1c[nH]cn1)NCC(O)COc1ccccc1)c1ccccc1 (stereo unspecified) : 129 °C
CCCSC(C(N)=O)c1cccc(C(=O)c2ccc(F)cc2)c1N (stereo unspecified) : 140 to 142 °C

Note down melting point recorded for Cc1ccc(N2CCN(c3c(C)c(C)c4c(c3C)CC(C)O4)CC2)cc1 (stereo unspecified)
150 to 151 °C

Note down melting point recorded for COC(=O)CC1CCc2cc(O)ccc2C1=O (stereo unspecified)
121 to 123 °C

Note down melting point recorded for `CCCCc1nc(SC)c(C(=O)O)n1Cc1ccc(-c2ccccc2-c2nnn[nH]2)cc1`
180 °C

Note down melting point recorded for `Cc1c2sc3ccccc3nc-2c2ccccc2c1=O`
181 °C

Note down melting point recorded for `O=C1N=CN(c2ccc(Cl)cc2)C12CCN(Cc1ccccc1)CC2`
217 to 219 °C

Note down melting point recorded for O=C(O)C1CCc2c(c3ccccc3n2C(=O)c2cccc(F)c2)C1 (stereo unspecified)
170 to 171 °C

Note down melting point recorded for `Cc1cc(=O)c2ccc(OCCCN3CCC(NC(=O)c4ccccc4)CC3)cc2o1`
173 to 175 °C

Note down melting point recorded for `CC(=O)Nc1nc2ccc(OC(C)=O)cc2n1S(=O)(=O)N(C)C`
164 to 166 °C

Note down melting point recorded for `CN1Cc2ccccc2C(=O)c2cc(CC(=O)O)cc(Cl)c21`
168 to 170 °C

Note down melting point recorded for `O=c1[nH]c2ccc(S(=O)(=O)NCCBr)cc2[nH]c1=O`
261 to 266 °C

Note down melting point recorded for `COc1ccccc1NC(=O)c1cccc(CO)c1`
102 °C

Note down melting point recorded for `CCCCCNC1=CC(=O)C(=O)c2ccccc21`
> 215 °C

Note down melting point recorded for `CC(C)[Si](OC[C@H]1C(C=O)=Cc2cc3c(cc2[C@@H]1O)OCO3)(C(C)C)C(C)C`
87 to 89 °C

Note down melting point recorded for COc1ccccc1C(Nc1cc(Cl)c(Cl)cc1Cl)C(=O)O (stereo unspecified)
188 °C

Note down melting point recorded for `CCCCCCCc1ccc(C(=O)CCCCC(=O)O)cc1[N+](=O)[O-]`
53 to 56 °C

Note down melting point recorded for `CNc1ccc(-c2nc(N3CCOCC3)c3sc(C(C)(C)Nc4ncc(C(=O)NO)cn4)cc3n2)cn1`
200 to 205 °C
